Just for reference, patent US20250011363A1 is where these values come from.

# study system: acetylcholine receptor
# test name: SPR, receptor immobilised on chip, peptide at 10 uM
Binding affinity (RU) less than 30 RU is 1; Binding affinity (RU) greater than or equal to 30 RU is 0.

INPUT: Quick check: does RCHPKK [6mer-2-987] have Binding affinity (RU) under 30 RU?
OUTPUT: 1

INPUT: Quick check: does RMTIKK [6mer-2-920] have Binding affinity (RU) under 30 RU?
OUTPUT: 1

INPUT: Quick check: does RFCWRK [6mer-2-917] have Binding affinity (RU) under 30 RU?
OUTPUT: 1

INPUT: Quick check: does RTTGKK [6mer-2-976] have Binding affinity (RU) under 30 RU?
OUTPUT: 1

INPUT: Quick check: does KCPIKK [6mer-2-973] have Binding affinity (RU) under 30 RU?
OUTPUT: 0

INPUT: Quick check: does KCTIRK [6mer-2-954] have Binding affinity (RU) under 30 RU?
OUTPUT: 0

INPUT: Quick check: does KKTMKK [6mer-2-975] have Binding affinity (RU) under 30 RU?
OUTPUT: 0

INPUT: Quick check: does KYKDRR [6mer-2-934] have Binding affinity (RU) under 30 RU?
OUTPUT: 1

INPUT: Quick check: does RMHFRR [6mer-2-992] have Binding affinity (RU) under 30 RU?
OUTPUT: 0

INPUT: Quick check: does KKCNKK [6mer-2-935] have Binding affinity (RU) under 30 RU?
OUTPUT: 1

INPUT: Quick check: does KTDKRK [6mer-2-942] have Binding affinity (RU) under 30 RU?
OUTPUT: 1

INPUT: Quick check: does KDMWKK [6mer-2-984] have Binding affinity (RU) under 30 RU?
OUTPUT: 0

INPUT: Quick check: does KDDIKK [6mer-2-914] have Binding affinity (RU) under 30 RU?
OUTPUT: 1

INPUT: Quick check: does KEDAKR [6mer-2-966] have Binding affinity (RU) under 30 RU?
OUTPUT: 0

INPUT: Quick check: does RMPERR [6mer-2-955] have Binding affinity (RU) under 30 RU?
OUTPUT: 1

INPUT: Quick check: does RNENKK [6mer-2-940] have Binding affinity (RU) under 30 RU?
OUTPUT: 0
